# System: MRSA clinical isolates
# PROTOCOL_DETAILS: Antibiotic susceptibility profile of MRSA clinical isolates (EUCAST breakpoints)
# Assay type: cell-based, Staphylococcus aureus
# TEST_CONDITIONS: MRSA strain 44

MOLECULE: CN(C)[C@@H]1C(O)=C(C(N)=O)C(=O)[C@@]2(O)C(O)=C3C(=O)c4c(O)cccc4[C@@](C)(O)[C@H]3C[C@@H]12
Drug sensibility profile: S
--
MOLECULE: CCCCCCCCCCNCCN[C@@]1(C)C[C@H](O[C@H]2[C@H](Oc3c4cc5cc3Oc3ccc(cc3Cl)[C@@H](O)[C@@H](NC(=O)[C@@H](CC(C)C)NC)C(=O)N[C@@H](CC(N)=O)C(=O)N[C@H]5C(=O)N[C@H]3C(=O)N[C@H](C(=O)N[C@H](C(=O)O)c5cc(O)c(CNCP(=O)(O)O)c(O)c5-c5cc3ccc5O)[C@H](O)c3ccc(c(Cl)c3)O4)O[C@H](CO)[C@@H](O)[C@@H]2O)O[C@@H](C)[C@H]1O
Drug sensibility profile: S
--
MOLECULE: Cn1nnc(-c2ccc(-c3ccc(N4C[C@H](CO)OC4=O)cc3F)cn2)n1
Drug sensibility profile: S
--
MOLECULE: CNC(C)C1CCC(N)C(OC2C(N)CC(N)C(OC3OCC(C)(O)C(NC)C3O)C2O)O1 (centres unmarked)
Drug sensibility profile: R
--
MOLECULE: Cc1cc(NS(=O)(=O)c2ccc(N)cc2)no1
Drug sensibility profile: S

----------
# Tested on: MRSA clinical isolates
# PROTOCOL_DETAILS: Antibiotic susceptibility profile of MRSA clinical isolates (EUCAST breakpoints)
# Format: cell-based, Staphylococcus aureus
# TEST_CONDITIONS: MRSA strain 14
PROPERTY_NAME: Drug sensibility profile

COMPOUND: CN(C)[C@@H]1C(O)=C(C(N)=O)C(=O)[C@@]2(O)C(O)=C3C(=O)c4c(O)cccc4[C@@](C)(O)[C@H]3C[C@@H]12 [TET, tetracycline]
REPORTED_VALUE: S
//
COMPOUND: CN[C@H](CC(C)C)C(=O)N[C@H]1C(=O)N[C@@H](CC(N)=O)C(=O)N[C@H]2C(=O)N[C@H]3C(=O)N[C@H](C(=O)N[C@H](C(=O)O)c4cc(O)cc(O)c4-c4cc3ccc4O)[C@H](O)c3ccc(c(Cl)c3)Oc3cc2cc(c3O[C@@H]2O[C@H](CO)[C@@H](O)[C@H](O)[C@H]2O[C@H]2C[C@](C)(N)[C@H](O)[C@H](C)O2)Oc2ccc(cc2Cl)[C@H]1O [Vancomycin, vancomycin]
REPORTED_VALUE: S
//
COMPOUND: CN(C)c1cc(NC(=O)CNC(C)(C)C)c(O)c2c1C[C@H]1C[C@H]3[C@H](N(C)C)C(O)=C(C(N)=O)C(=O)[C@@]3(O)C(O)=C1C2=O [Tigecycline]
REPORTED_VALUE: S

Where these numbers come from: paper PMC11899342
